target or test system: UniProt:P13612
Sequence (P13612 whole entry, looked up): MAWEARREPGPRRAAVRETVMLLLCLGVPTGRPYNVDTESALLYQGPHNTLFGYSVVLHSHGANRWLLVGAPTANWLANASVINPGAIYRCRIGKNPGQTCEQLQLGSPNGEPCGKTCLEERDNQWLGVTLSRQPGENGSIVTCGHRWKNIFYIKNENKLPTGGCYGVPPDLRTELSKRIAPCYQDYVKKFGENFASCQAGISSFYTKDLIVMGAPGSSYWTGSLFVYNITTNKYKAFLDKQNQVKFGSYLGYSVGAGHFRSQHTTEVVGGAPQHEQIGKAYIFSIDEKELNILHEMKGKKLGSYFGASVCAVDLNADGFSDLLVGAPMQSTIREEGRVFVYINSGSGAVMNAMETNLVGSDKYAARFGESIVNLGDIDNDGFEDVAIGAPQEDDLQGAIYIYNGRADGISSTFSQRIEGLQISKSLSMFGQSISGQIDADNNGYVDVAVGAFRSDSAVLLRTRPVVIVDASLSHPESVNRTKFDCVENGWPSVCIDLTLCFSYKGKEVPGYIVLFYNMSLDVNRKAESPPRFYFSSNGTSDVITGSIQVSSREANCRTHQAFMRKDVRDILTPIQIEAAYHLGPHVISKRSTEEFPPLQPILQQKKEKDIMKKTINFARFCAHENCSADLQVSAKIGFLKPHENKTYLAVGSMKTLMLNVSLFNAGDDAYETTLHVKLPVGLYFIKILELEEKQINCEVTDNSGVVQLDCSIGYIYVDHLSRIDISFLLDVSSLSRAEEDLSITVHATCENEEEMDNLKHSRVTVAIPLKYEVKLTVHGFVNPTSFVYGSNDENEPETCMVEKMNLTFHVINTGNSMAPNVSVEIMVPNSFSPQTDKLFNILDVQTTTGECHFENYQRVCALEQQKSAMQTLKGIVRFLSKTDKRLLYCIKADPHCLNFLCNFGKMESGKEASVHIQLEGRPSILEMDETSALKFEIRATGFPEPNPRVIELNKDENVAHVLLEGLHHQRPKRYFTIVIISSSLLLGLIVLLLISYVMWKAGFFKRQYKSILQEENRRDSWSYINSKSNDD
experiment description: inhibition of LDV ligand binding to VLA-4 – cell-based, LDV-FITC binding, flow cytometry, dose response (AID 702)
pEC50: −log10 of the molar value. Records with an inconclusive call do not appear.

compound	pEC50
CCOc1cc2[nH]c(=O)n(CC3CCC(C(=O)NCCC(C)C)CC3)c(=O)c2cc1OCC (stereo unspecified)	5.63
Cc1onc(-c2ccccc2)c1C(=O)NC(CC(=O)O)c1ccc(OC(C)C)cc1 (stereo unspecified)	5.19
CCCOc1ccc(C(CC(=O)O)NC(=O)C23CC4CC(CC(C4)C2)C3)cc1 (stereo unspecified)	7.10
Cc1oc2cc(O)ccc2c(=O)c1Oc1ccccc1Br	4.50
CCCCC1C(=O)N(c2ccccc2)N(c2ccccc2)C1=O	5.97
Cc1cc(C)cc(-n2ccnc(SCC(=O)Nc3ccc(Cl)cc3F)c2=O)c1	4.28
CCOc1cc2[nH]c(=O)n(CC3CCC(C(=O)NC(C)CC)CC3)c(=O)c2cc1OCC (stereo unspecified)	5.37
CC(C)Oc1ccc(C(CC(=O)O)NC(=O)C2CCCCC2)cc1 (stereo unspecified)	5.38
CCOc1cc2[nH]c(=O)n(CCCCC(=O)NC3CCCCCC3)c(=O)c2cc1OCC	5.29
COc1cccc2sc(Nc3nnc(-c4ccccc4Cl)o3)nc12	5.29
O=C1C(CCS(=O)c2ccccc2)C(=O)N(c2ccccc2)N1c1ccccc1 (stereo unspecified)	4.76
O=C(Cn1nc(-c2ccc3c(c2)OCCO3)ccc1=O)Nc1ccc(N2CCOCC2)cc1	4.85
N/C(=N/O)c1nc(N2CCCC2)nc(N(c2ccccc2)c2ccccc2)n1	4.69
C=C(C)C1Cc2c(C)nn(-c3nc(C)cc(C)n3)c2C1 (stereo unspecified)	4.35
CCCCCNC(=O)CCCCn1c(=O)[nH]c2cc(OCC)c(OCC)cc2c1=O	5.34
CCOc1ccc(C(CC(=O)O)NC(=O)C23CC4CC(CC(C4)C2)C3)cc1 (stereo unspecified)	7.05
